Test system: K562
Assay: NCI tumour cell line growth inhibition, 48 h
Activity calls are given as the source filed them. No stated cut-off is given here; in the data, active = GI50 up to about 1.1 µM and inactive = higher.
Outcomes you can answer with include only these: active, inactive

Would you please look over these solved cases?
[[record]]
molecule = "COC(=O)C1=C(O)C(C(=O)OC)C2CC(=O)CC1C2(C)C (centres undefined)"
label_value = "inactive"

[[record]]
molecule = "C/C(CC(=O)Nc1ccc(NC(=O)/C(C)=N/NS(=O)(=O)c2ccc(C)cc2)cc1)=N\\NS(=O)(=O)c1ccc(C)cc1"
label_value = "inactive"

[[record]]
molecule = "CN(C)CCCNC(=O)c1cn2c(ccc3sc4ccccc4c(=O)c32)n1"
label_value = "inactive"

[[record]]
molecule = "c1cc2c(c(NC3=NCCO3)c1)CCC2"
label_value = "inactive"


Which outcome was assigned to C[C@]12CC[C@H]3[C@@H](CC[C@]4(O)C[C@@H](O)CC[C@]34/C=N/O)[C@@]1(O)CC[C@@H]2C1=COC(=O)C1 in this test? active

Which outcome was assigned to COc1ccc(N2C(=O)/C(=C\c3ccccc3)SC2c2cc(OC)c(OC)c(OC)c2)cc1 (centres undefined) in this test? inactive

###

Test system: SK-MEL-5
Experiment: NCI tumour cell line growth inhibition, 48 h
The source made the active and inactive calls. No stated cut-off is given here; in the data, active = GI50 up to about 1.1 µM and inactive = higher.
Outcomes you can answer with include only these: label 1 = active, label 0 = inactive

Would you please look over these solved cases?
[[record]]
molecule = "CN(Cc1cccc2ccccc12)Cc1cccc2ccccc12"
target_or_test_system = "SK-MEL-5"
label_value = "label 0"

[[record]]
molecule = "CN(C)CCn1c(=O)c2ccc3c4c(nn3CCN(C)C)c3cc(N)ccc3n(c1=O)c24"
target_or_test_system = "SK-MEL-5"
label_value = "label 1"

[[record]]
molecule = "CC(C)=CCCC(C)[C@H]1CC(O)C2(C)C3=CCC4C(C)(C)[C@@H](O)CC[C@]4(C)C3=CC[C@]12C (stereo not given in full)"
target_or_test_system = "SK-MEL-5"
label_value = "label 0"

[[record]]
molecule = "CCN1CC2=C(NC(=S)NC2c2cc(OC)c(OC)c(OC)c2)/C(=C/c2cc(OC)c(OC)c(OC)c2)C1 (stereo not given)"
target_or_test_system = "SK-MEL-5"
label_value = "label 0"


Which outcome was assigned to CC1C=CC(O)[C@]2(CO)CC3(CCC12)OCCO3 (stereo not given in full) in this test? label 0

###

Tested on: OVCAR-4
Assay: NCI tumour cell line growth inhibition, 48 h
Active and inactive are the calls of the source. Cut-off read from the data, not from the text of the source: active = GI50 up to about 1.1 µM and inactive = higher. Peptide text beside a SMILES is read from it. * marks the point of attachment. Trt = c1ccc(C(c2ccccc2)(c2ccccc2)*)cc1; Cbz = O=C(OCc1ccccc1)*
Outcomes you can answer with include only these: 1 (active), 0 (inactive)

[[record]]
molecule = "Cc1cc(S(=O)(=O)[N-]/C(=N/S(=O)(=O)c2ccc(Cl)cc2)[n+]2ccc(N(C)C)cc2)c(S)cc1Cl"
label_value = 0

[[record]]
molecule = "O=C1CCSSCCC(=O)NCCN1"
label_value = 0

[[record]]
molecule = "CC1=NN(c2nc(N)nc(CCl)n2)CC1"
label_value = 0

[[record]]
molecule = "CC(C)NC(=O)OCc1c(COC(=O)NC(C)C)n(C)c2c1ccc1sccc12"
label_value = 0


Which outcome was assigned to C[Si](C)(C)/C(Br)=C\CCN1C(=O)CCC1O (centres undefined) in this test? 0

Which outcome was assigned to CC(=O)OCC1OC(n2cc([N+](=O)[O-])c(=O)[nH]c2=O)C(OC(C)=O)C(OC(C)=O)C1OC(C)=O (centres undefined) in this test? 0

Which outcome was assigned to COC(=O)C(CO)NC(=O)C(CSC(c1ccccc1)(c1ccccc1)c1ccccc1)NC(=O)OCc1ccccc1 (centres undefined) (Cbz-Cys(Trt)-Ser-OMe; configuration not given here) in this test? 0

Which outcome was assigned to COc1ccc(-c2cc(-c3ccc(Nc4ccnc5cc(C(F)(F)F)ccc45)cc3)nc(N)c2C#N)c2ccccc12 in this test? 0

Which outcome was assigned to C=C1C(C[C@@H]2O[C@H]3C[C@H]4O[C@@]5(C[C@@H]6O[C@]7(C[C@H](C)[C@@H]8O[C@@H]9CC(C(O)CO)O[C@@H]9C[C@@H]8O7)C[C@H](C)[C@@H]6O5)C[C@H]4O[C@H]3[C@H](C)[C@H]2O)O[C@@H](CC[C@@H]2O[C@@H](CC[C@@]34CC5O[C@H]6C(O[C@H]7CC[C@H](CC(=O)OC)O[C@@H]7[C@@H]6O3)[C@H]5O4)CC2=C)C[C@H]1C (some centres undefined) in this test? 1
